# key: entry, value: % Blocking
- EXPERIMENTAL SYSTEM: T1, Hmm-hTFRC (REGN2431), monomeric human transferrin receptor ectodomain with N-terminal hexahistidine-myc-myc … (human, UniProt P02786 89-760)
- T1 construct: also called hmm.hTfR(C89-F763); His-myc-myc-hTFRC ecto
- T1 sequence (P02786 other isoform, or with tags, fused parts or gaps): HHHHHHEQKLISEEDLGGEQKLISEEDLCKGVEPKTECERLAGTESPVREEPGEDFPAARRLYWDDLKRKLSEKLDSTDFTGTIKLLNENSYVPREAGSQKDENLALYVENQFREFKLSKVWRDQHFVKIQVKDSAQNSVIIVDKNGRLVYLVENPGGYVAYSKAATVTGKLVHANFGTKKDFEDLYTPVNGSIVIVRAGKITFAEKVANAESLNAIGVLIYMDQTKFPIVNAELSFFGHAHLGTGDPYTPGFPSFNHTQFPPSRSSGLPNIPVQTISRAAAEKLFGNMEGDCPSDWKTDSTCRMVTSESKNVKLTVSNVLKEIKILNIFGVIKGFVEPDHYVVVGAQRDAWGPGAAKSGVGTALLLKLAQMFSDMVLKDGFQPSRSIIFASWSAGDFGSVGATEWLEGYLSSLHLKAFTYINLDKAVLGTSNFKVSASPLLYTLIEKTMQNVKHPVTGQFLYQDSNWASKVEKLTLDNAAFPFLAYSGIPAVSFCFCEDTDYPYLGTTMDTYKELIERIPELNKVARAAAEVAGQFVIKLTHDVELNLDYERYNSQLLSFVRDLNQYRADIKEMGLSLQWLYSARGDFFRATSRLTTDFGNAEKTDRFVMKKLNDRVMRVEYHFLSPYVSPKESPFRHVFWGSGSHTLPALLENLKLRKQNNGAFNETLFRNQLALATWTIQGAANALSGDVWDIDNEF
- METHOD SUMMARY: blocking ELISA, supernatant; Hmm-hTFRC binding to immobilized human holo-Tf
Don't forget the unit after the number, please.

The examples below pair each entry with its known result.
12801B Fab (Fab, V domains shown, CHO supernatant) VH: EVQLLESGGALVQPGGSLRLSCAASGFTFTSYAMHWVRQAPGKGLEWVSSIRGSGGGTYSADSVKGRFTISRDNSRDTLYLQMNSVRAEDTAVYYCARSHDYGAFDFFDYWGQGTLVTVSS VL: DIQMTQSPSSLSASVGDRVTITCRASQGIRTDLGWYQQKPGKAPKRLIYAASSLQSGVPSRFSGSGSGTEFTLTISSLRPEDFATFYCLQYNSYPLTFGGGTKVEIKR; 45%
12801B scFv (VK-VH) (scFv, CHO supernatant; Vk-3xG4S-Vh) scFv: DIQMTQSPSSLSASVGDRVTITCRASQGIRTDLGWYQQKPGKAPKRLIYAASSLQSGVPSRFSGSGSGTEFTLTISSLRPEDFATFYCLQYNSYPLTFGGGTKVEIKGGGGSGGGGSGGGGSEVQLLESGGALVQPGGSLRLSCAASGFTFTSYAMHWVRQAPGKGLEWVSSIRGSGGGTYSADSVKGRFTISRDNSRDTLYLQMNSVRAEDTAVYYCARSHDYGAFDFFDYWGQGTLVTVSS; 27%

Answer with the recorded % Blocking for the binder listed here: 69331 scFv (VK-VH) (scFv, CHO supernatant; Vk-3xG4S-Vh) scFv: DIQLTQSPSSLSASVGDRVTITCWASQGISSYLAWYQQKPGKAPKLLIYAASTLQSGVPSRFSGSGSGTEFTLTISSLQPEDFATYYCQQLNSYPLTFGGGTKVEIKGGGGSGGGGSGGGGSQVQLVESGGGVVQPGRSLRLSCIASGFTFSVYGIHWVRQAPGKGLEWMAVISHDGNIKHYADSVKGRFTISRDNSKNTLYLQINSLRTEDTAVYYCAKDTWNSLDTFDIWGQGTMVTVSS
13%
